The values you see were collected from ChEMBL document CHEMBL1212734.

# System: Pseudomonas aeruginosa
# PROTOCOL NOTES: Antibacterial activity against Pseudomonas aeruginosa ATCC 27853 assessed as inhibition of biofilm formation by microtiter plate reader assay
# Type: functional
READOUT LABEL: BBC (µg/mL)

STRUCTURE STRING	UNITS TEXT	COMPARATOR	MEAS VALUE
C[C@H]1COc2c(N3CCN(C)CC3)c(F)cc3c(=O)c(C(=O)O)cn1c23.C[C@H]1COc2c(N3CCN(C)CC3)c(F)cc3c(=O)c(C(=O)O)cn1c23.O	µg/mL	=	2
NCC[C@H](O)C(=O)N[C@@H]1C[C@H](N)[C@@H](O[C@H]2O[C@H](CN)[C@@H](O)[C@H](O)[C@H]2O)[C@H](O)[C@H]1O[C@H]1O[C@H](CO)[C@@H](O)[C@H](N)[C@H]1O	µg/mL	=	8
C[C@H]1[C@H](NC(=O)/C(=N\OC(C)(C)C(=O)O)c2csc(N)n2)C(=O)N1S(=O)(=O)O	µg/mL	>	256
NC[C@H]1O[C@H](O[C@H]2[C@H](O)[C@@H](O[C@H]3O[C@H](CO)[C@@H](O)[C@H](N)[C@H]3O)[C@H](N)C[C@@H]2N)[C@H](N)C[C@@H]1O	µg/mL	=	1

====

# Tested on: Achromobacter xylosoxidans
# PROTOCOL NOTES: Antibacterial activity against Alcaligenes xylosoxidans by broth dilution method
# Format: functional
Listed compounds paired with reported MIC50

STRUCTURE STRING	UNITS TEXT	COMPARATOR	MIC50
NC[C@H]1O[C@H](O[C@H]2[C@H](O)[C@@H](O[C@H]3O[C@H](CO)[C@@H](O)[C@H](N)[C@H]3O)[C@H](N)C[C@@H]2N)[C@H](N)C[C@@H]1O	µg/mL	>	32
NCC[C@H](O)C(=O)N[C@@H]1C[C@H](N)[C@@H](O[C@H]2O[C@H](CN)[C@@H](O)[C@H](O)[C@H]2O)[C@H](O)[C@H]1O[C@H]1O[C@H](CO)[C@@H](O)[C@H](N)[C@H]1O	µg/mL	>	128
O=C(O)c1cn(C2CC2)c2cc(N3CCNCC3)c(F)cc2c1=O	µg/mL	=	4
C[C@H]1[C@H](NC(=O)/C(=N\OC(C)(C)C(=O)O)c2csc(N)n2)C(=O)N1S(=O)(=O)O	µg/mL	=	64
C[C@H]1COc2c(N3CCN(C)CC3)c(F)cc3c(=O)c(C(=O)O)cn1c23.C[C@H]1COc2c(N3CCN(C)CC3)c(F)cc3c(=O)c(C(=O)O)cn1c23.O	µg/mL	=	4

====

Each item that follows carries a reported BBC.
# Test system: Pseudomonas aeruginosa
# PROTOCOL NOTES: Antibacterial activity against Pseudomonas aeruginosa PA1042 assessed as inhibition of biofilm formation by microtiter plate reader assay
# Format: functional

COMPOUND	COMPARATOR	BBC, µg/mL
NCC[C@H](O)C(=O)N[C@@H]1C[C@H](N)[C@@H](O[C@H]2O[C@H](CN)[C@@H](O)[C@H](O)[C@H]2O)[C@H](O)[C@H]1O[C@H]1O[C@H](CO)[C@@H](O)[C@H](N)[C@H]1O [AMIKACIN]	=	8
C[C@H]1COc2c(N3CCN(C)CC3)c(F)cc3c(=O)c(C(=O)O)cn1c23.C[C@H]1COc2c(N3CCN(C)CC3)c(F)cc3c(=O)c(C(=O)O)cn1c23.O [LEVOFLOXACIN]	=	1
C[C@H]1[C@H](NC(=O)/C(=N\OC(C)(C)C(=O)O)c2csc(N)n2)C(=O)N1S(=O)(=O)O [AZTREONAM]	>	8
NC[C@H]1O[C@H](O[C@H]2[C@H](O)[C@@H](O[C@H]3O[C@H](CO)[C@@H](O)[C@H](N)[C@H]3O)[C@H](N)C[C@@H]2N)[C@H](N)C[C@@H]1O [TOBRAMYCIN]	=	1
